- SUBJECT_OF_TEST: Dog Recombinant LOXL2 (Canis lupus familiaris, UniProt A0A8I3P9Y5)
- Sequence (A0A8I3P9Y5 1-777): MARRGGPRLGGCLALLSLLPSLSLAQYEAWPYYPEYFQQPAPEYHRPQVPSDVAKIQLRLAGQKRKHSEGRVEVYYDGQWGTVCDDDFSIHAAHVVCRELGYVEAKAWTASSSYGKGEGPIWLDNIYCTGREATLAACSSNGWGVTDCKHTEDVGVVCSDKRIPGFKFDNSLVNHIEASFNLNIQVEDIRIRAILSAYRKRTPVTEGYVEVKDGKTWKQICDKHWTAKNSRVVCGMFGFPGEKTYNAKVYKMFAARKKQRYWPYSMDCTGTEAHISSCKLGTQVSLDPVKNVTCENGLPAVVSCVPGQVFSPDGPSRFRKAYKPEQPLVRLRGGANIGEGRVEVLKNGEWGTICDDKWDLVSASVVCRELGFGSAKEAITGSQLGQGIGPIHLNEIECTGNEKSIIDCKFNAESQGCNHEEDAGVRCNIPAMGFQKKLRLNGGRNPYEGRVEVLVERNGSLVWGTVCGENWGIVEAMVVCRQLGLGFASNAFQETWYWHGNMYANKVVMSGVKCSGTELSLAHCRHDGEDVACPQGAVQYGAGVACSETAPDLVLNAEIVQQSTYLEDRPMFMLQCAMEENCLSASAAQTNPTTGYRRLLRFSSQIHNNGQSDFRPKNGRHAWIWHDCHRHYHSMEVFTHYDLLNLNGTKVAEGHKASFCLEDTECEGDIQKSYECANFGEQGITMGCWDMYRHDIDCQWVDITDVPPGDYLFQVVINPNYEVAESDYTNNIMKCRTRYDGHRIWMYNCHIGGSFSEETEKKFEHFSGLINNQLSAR
- ASSAY: Amine oxidase inhibition profile, dog LOXL2
For each record, write down the corresponding IC50.
Remember to follow the number with its unit.

GET /values?item= N#CCCN [BAPN, β-aminoproprionitrile, reference compound] &system= Dog Recombinant LOXL2 (Canis lupus familiaris, UniProt A0A8I3P9Y5) returns IC50: 480 nM

GET /values?item= "NC/C=C(\F)CS(=O)(=O)c1ccccc1" &system= Dog Recombinant LOXL2 (Canis lupus familiaris, UniProt A0A8I3P9Y5) returns IC50: 620 nM

GET /values?item= "NC/C=C(\F)C(F)(F)S(=O)(=O)c1ccccc1" &system= Dog Recombinant LOXL2 (Canis lupus familiaris, UniProt A0A8I3P9Y5) returns IC50: 340 nM
